System: Vero E6 cells
Assay: Cytotoxicity, trypan blue exclusion method
Conditions: Vero E6 cells, 72 h, trypan blue
measure: CC50

The compound CCCCSc1nc(-c2ccccc2)nn1[C@@H]1O[C@H](CO)[C@@H](O)[C@H]1O , tested on Vero E6 cells, showed CC50 of 658 µM

Let me check: CCCCSc1n[nH]c(-c2ccccc2)n1 , system Vero E6 cells, measured CC50 is 91.1 µM

* * *

Form field: IC95 (one value per entry).
Tested on: HSV-1/L2/R^ACV
Assay: microbe, parasite or virus in culture
Conditions: Human alphaherpesvirus 1, Vero C1008, 48 h
A number alone suffices; assume µM.

// known answers, use as guide
structure.smiles	observed
CCCCSc1nc(-c2ccccc2)nn1[C@@H]1O[C@H](CO)[C@@H](O)[C@H]1O	375
O=C(CSc1nc(-c2ccccc2)nn1[C@H]1C[C@H](O)[C@@H](CO)O1)c1ccccc1	149
O=C(CSc1ncn([C@@H]2O[C@H](CO)[C@@H](O)[C@H]2O)n1)c1ccccc1	3030
O=C(CSc1nnc[nH]1)c1ccccc1	2280
CCCCSc1nc(-c2ccccc2)nn1[C@H]1C[C@H](O)[C@@H](CO)O1	93.8

Short answer for O=C(CSc1ncn([C@H]2C[C@H](O)[C@@H](CO)O2)n1)c1ccccc1 : IC95 was 835

The measured IC95 associated with O=C(CSc1nc(-c2ccccc2)nn1[C@@H]1O[C@H](CO)[C@@H](O)[C@H]1O)c1ccccc1 reads 305
